molecular target: Mitogen-activated protein kinase kinase kinase kinase 2 (Homo sapiens); conditions: at 0.1 µM;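 also: values given as mean percent inhibition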
measure: inhibition (%)
Just the number in %, nothing appended.

// worked examples, inhibition included
* Nc1nccc(-c2c(-c3ccc(F)cc3)ncn2CCCN2CCOCC2)n1 | 2.02
* NS(=O)(=O)c1cccc(Nc2cc(-c3ccc(F)cc3)n[nH]2)c1 | 1.41
* Cc1nc(-c2ccccc2)n2nc(NCCCN3CCOCC3)ncc12 | 2.45
* NS(=O)(=O)c1ccc(-c2cc3ccncc3cc2OCc2ccccc2)cc1 | -0.94
* NS(=O)(=O)c1ccc(Nc2cc(-c3cccc(O)c3)n[nH]2)cc1 | 2.13
* NC(=O)c1cccc(Nc2nccc(Nc3cccc(F)c3)n2)c1 | 0.98

Turning now to a further compound:
// inhibition lookup, key: `Nc1nccc(C#Cc2cncnc2Nc2ccc(OCc3cccc(F)c3)c(Cl)c2)n1`
1.38

====

Listed compounds paired with reported inhibition
target: Non-receptor tyrosine-protein kinase TYK2 (Homo sapiens) (UniProt P29597); details: at 0.1 µM;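 also: each value is a mean of the inhibition readings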
Sequence (P29597 whole entry): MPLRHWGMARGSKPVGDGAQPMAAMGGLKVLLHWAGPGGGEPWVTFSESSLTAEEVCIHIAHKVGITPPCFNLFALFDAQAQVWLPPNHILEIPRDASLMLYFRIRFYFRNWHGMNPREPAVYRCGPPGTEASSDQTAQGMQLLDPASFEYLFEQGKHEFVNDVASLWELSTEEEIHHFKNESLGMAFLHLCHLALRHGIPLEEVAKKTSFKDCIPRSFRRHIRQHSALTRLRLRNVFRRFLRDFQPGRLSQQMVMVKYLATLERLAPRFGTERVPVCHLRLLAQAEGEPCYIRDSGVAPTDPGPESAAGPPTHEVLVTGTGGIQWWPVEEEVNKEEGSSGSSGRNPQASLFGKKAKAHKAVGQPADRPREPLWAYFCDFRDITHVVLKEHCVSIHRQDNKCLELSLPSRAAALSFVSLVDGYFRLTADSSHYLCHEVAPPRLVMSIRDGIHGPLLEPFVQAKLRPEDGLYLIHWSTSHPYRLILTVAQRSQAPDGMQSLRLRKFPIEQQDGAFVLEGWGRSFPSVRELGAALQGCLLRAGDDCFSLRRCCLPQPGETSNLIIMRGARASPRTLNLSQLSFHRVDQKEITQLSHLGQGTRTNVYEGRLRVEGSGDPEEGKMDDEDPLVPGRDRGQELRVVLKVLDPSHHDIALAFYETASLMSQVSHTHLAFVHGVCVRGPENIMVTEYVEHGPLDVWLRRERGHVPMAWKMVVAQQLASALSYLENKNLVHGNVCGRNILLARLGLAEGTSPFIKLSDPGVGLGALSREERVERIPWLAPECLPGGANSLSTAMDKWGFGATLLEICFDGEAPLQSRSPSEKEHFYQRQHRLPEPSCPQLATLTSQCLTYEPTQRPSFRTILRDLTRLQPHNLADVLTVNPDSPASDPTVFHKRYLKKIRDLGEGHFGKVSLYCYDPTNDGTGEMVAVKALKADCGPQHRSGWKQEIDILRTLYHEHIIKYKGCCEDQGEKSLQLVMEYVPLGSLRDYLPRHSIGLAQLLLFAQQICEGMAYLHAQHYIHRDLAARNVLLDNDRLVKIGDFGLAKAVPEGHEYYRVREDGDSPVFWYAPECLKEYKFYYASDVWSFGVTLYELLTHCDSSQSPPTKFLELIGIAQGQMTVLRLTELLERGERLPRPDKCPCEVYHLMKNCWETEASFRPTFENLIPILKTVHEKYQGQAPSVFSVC
Just the number in %, nothing appended.

// worked examples, inhibition included
• COc1cc2ncn(-c3cc(OCc4ccccc4S(C)(=O)=O)c(C#N)s3)c2cc1OC = -7.35
• CC(C)c1ccc(Nc2nccc(-c3cnn4ncccc34)n2)cc1 = -0.82
• Oc1cccc(-c2nc(-c3ccccc3)[nH]c2-c2ccncc2)c1 = -1.97
• O=C1Nc2ccccc2/C1=C/Nc1ccc2[nH]c(=O)[nH]c2c1 = -6.64
• FC(F)(F)c1ccc(-c2nn3ncccc3c2-c2ccnc(Nc3ccc4c(c3)OCCO4)n2)cc1 = 3.04

Hi! What's the reported inhibition for `Nc1nccc(C#Cc2cncnc2Nc2ccc(OCc3cccc(F)c3)c(Cl)c2)n1` on Non-receptor tyrosine-protein kinase TYK2 (Homo sapiens) (UniProt P29597)?
-3.29

Query `ON=C1CCc2cc(-c3nc(C4CCNCC4)[nH]c3-c3ccncc3)ccc21` next
-1.08

Query `CCS(=O)(=O)c1ccc(OC)c(Nc2nccc(N(C)c3ccc4c(C)n[nH]c4c3)n2)c1` next
-6.13

Query `NC(=O)c1cccc(Nc2nccc(Nc3cccc(F)c3)n2)c1` next
3.52

Query `Cc1cc(Cl)cc2c1NC(=O)C2=NNc1ccc(S(N)(=O)=O)cc1` next
-5.56

Query `CS(=O)(=O)Nc1cccc(-c2ccc3c(NC(=O)C4CC4)n[nH]c3c2)c1` next
0.85

====

Listed molecules paired with reported inhibition
target: Protein kinase C beta type (Homo sapiens); details: at 1 µM;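 also: mean inhibition value, enzyme form tested was the PKC-beta1 splice variant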
Description: GSK_PKIS: PKC-beta1 (splice variant) mean inhibition at 1 uM [Nanosyn]
Answer format: value, then unit.

* CCS(=O)(=O)c1ccc(OC)c(Nc2nccc(N(C)c3ccc4c(C)n[nH]c4c3)n2)c1 | -2.93%
* [O-][S+]1CCN(Cc2ccc(-c3ccc4ncnc(Nc5ccc(OCc6ccccc6)c(Cl)c5)c4c3)o2)CC1 | 0.65%
* COc1cc2ncnc(Nc3ccc4c(cnn4Cc4ccccc4)c3)c2cc1OC | -2.42%
* Nc1nccc(-c2c(-c3ccc(F)cc3)nn3cc(C(F)(F)F)ccc23)n1 | 0.52%
* COC(=O)c1cncc(/C=C/c2c(C)cc(O)cc2C)c1 | 2.09%
* COc1ccc2ncnc(Nc3ccc(OCc4ccccc4)cc3)c2c1 | 2.16%

Hi! What's the reported inhibition for `Cc1cc(-c2ccccn2)cc(C)c1/C=C/c1cncc(-c2nn[nH]n2)c1` on Protein kinase C beta type (Homo sapiens)?
0.37%

Query `NS(=O)(=O)c1ccc(-c2cc3ccncc3cc2OCc2ccccc2)cc1` next
3.25%

Query `CCS(=O)(=O)c1ccc(OC)c(Nc2ncc(-c3cccc(OC)c3)o2)c1` next
-1.05%

Query `COc1cccc(-n2nc(C)c3c(N/N=C(\C)c4ccncc4)ncnc32)c1` next
-2.45%

Query `Nc1nccc(C#Cc2cncnc2Nc2ccc(OCc3cccc(F)c3)c(Cl)c2)n1` next
2.19%

Query `FC(F)(F)c1ccc(-c2nn3ncccc3c2-c2ccnc(Nc3ccc4c(c3)OCCO4)n2)cc1` next
11.9%

Query `COC(=O)Nc1nc2cc(Oc3ccc(NC(=O)Nc4cccc(Br)c4)cc3)ccc2[nH]1` next
2.4%

Query `O=S(=O)(CCOCc1ccc(-c2ccc3ncnc(Nc4ccc(OCc5cccc(F)c5)c(Cl)c4)c3c2)o1)c1ccccc1` next
-0.92%

Query `O=C1Nc2ccccc2/C1=C/Nc1ccc2[nH]c(=O)[nH]c2c1` next
4.33%

Query `COc1cc2ncnc(Nc3ccc(C)c(O)c3)c2cc1OC` next
5.43%

Query `CN(C)C(=O)O[C@@H]1CN[C@@H](C#Cc2cc3ncnc(Nc4ccc(OCc5cccc(F)c5)c(Cl)c4)c3s2)C1` next
2.12%

Query `CCOc1nccc2c1nc(-c1nonc1N)n2CC` next
39.7%

Query `Cc1cc(Cl)cc2c1NC(=O)C2=NNc1ccc(S(N)(=O)=O)cc1` next
2.56%

Query `COc1cc(Nc2nccc(-c3cnn4ncccc34)n2)cc(OC)c1` next
8.95%

Query `Nc1nccc(-c2c(-c3ccc(F)cc3)ncn2CCCN2CCOCC2)n1` next
7.05%
